- experimental-target: Matrix metalloproteinase-14 (Homo sapiens) (UniProt P50281)
- procedure-summary: blockers of MT1-MMP proenzyme processing, primary screen, HT1080 RFP-PRO-GFP cells, GFP/RFP fluorescence (AID 651647)
- assay-setup: overnight, at 20 µM, hits give high values, percent of plate control window, DMSO zero
Hit rate of the full screen: of about 360,000 compounds, about 220 (0.061%) were called active. Many of the other results were omitted from the sample, so actives are more common in it than they were.

compound	unit-string	GFP/RFP ratio change
CNC(=S)N1CCC(NC(=O)C(Cc2ccc(F)cc2)NC(C)=O)CC1 (stereo unspecified)	%	-0.719
COC1=C/C(=C/c2c(N)n3nc(CC(=O)N4CCOCC4)sc3nc2=O)C=CC1=O	%	-33.2
O=C1CCCC(O)=C1N=Nc1ccc(S(=O)(=O)N2CCOCC2)cc1	%	48.9
Cc1ccc(NC(=O)COc2coc(CN3CCc4ccccc4C3)cc2=O)cc1Cl	%	-6.33
COc1ccc(CC(NC(C)=O)C(=O)N2CCN(C(=O)Nc3cccc(Cl)c3)CC2)cc1OC (stereo unspecified)	%	-3.43
Cc1cc(OCc2ccc(C(=O)Nc3ccc(C(=O)O)cc3)o2)ccc1Cl	%	1.24
Cc1cc(OC(=O)c2ccc(Cl)cc2)cc(=O)n1C	%	0.208
Cc1ccc(Nc2ccccc2N)cc1	%	-12
O=C1CCC(C(=O)N2CCC(O)(c3ccccc3)CC2)CN1CCc1ccccc1 (stereo unspecified)	%	-2.93
COc1c(O)cccc1-c1nnn(CCC(=O)OCC(=O)c2ccccc2)n1	%	4.76
N#Cc1ccc(-c2nc3c(Cl)cc(C(F)(F)F)cn3c2Cc2ccccc2C(F)(F)F)cc1	%	1.7
O=C(CSc1nc(C2CC2)nc2ccccc12)Nc1cccc(O)c1	%	-3.6
CCC1=C(OC(=O)N(CC)CC)N2C(=O)OC(=NCC3CC3)[C@]2(C)[C@H]2C1=CC[C@H]1C(=O)N(CC(=O)OC)C(=O)[C@H]12	%	-1.64
CN(C(=O)c1cccc(NC(=O)C2CCN(C(=O)OC(C)(C)C)CC2)c1)C1CCC1	%	6.42
Cc1ccc(NC(=O)CSc2nnc(CNC(=O)c3ccccc3F)o2)cc1Cl	%	3.87
CN1CC(c2ccccc2)C2(COc3ccccc3C2=O)C12C(=O)Nc1ccccc12 (stereo unspecified)	%	-4.6
O=C(c1cccc(S(=O)(=O)N2CCCC2)c1)N(Cc1ccco1)C1CCS(=O)(=O)C1 (stereo unspecified)	%	-1.85
Nc1ccc(Nc2ccccc2)cc1	%	44
COC(=O)c1ccccc1Oc1c(F)c(F)nc(N2CCOCC2)c1F	%	2.7
COCCCNC(=O)CN1C(=O)CSc2ccc(S(=O)(=O)N3CCOCC3)cc21	%	-2.33
O=C1CCCC(O)=C1N=Nc1ccc2ncsc2c1	%	4.19
